Target: human CGT (ceramide galactosyltransferase), CHO/CGT lysate (Homo sapiens)
Construct: Full-length human CGT cDNA was cloned into the BamH1/Xho1 site of pcDNA3.1 (+); expressed in transfected cells; host or cells: Chinese hamster ovary (CHO) cells; lysate prepared with M-PER
Sequence (Q16880 21-541): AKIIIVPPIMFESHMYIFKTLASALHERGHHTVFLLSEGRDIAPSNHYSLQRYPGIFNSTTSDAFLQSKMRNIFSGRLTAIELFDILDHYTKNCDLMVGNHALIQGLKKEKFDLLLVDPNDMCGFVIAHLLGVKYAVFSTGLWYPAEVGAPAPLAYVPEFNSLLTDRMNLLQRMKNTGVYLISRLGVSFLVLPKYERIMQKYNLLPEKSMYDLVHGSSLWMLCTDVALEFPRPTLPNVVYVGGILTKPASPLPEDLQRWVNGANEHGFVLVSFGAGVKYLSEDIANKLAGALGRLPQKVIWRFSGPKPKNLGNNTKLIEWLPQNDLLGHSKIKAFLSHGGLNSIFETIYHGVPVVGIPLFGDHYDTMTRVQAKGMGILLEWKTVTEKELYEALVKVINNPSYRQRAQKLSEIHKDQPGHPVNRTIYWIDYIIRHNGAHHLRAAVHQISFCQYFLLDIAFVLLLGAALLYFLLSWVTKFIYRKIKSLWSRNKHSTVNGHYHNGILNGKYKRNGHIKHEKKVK
Assay: CGT enzyme assay, RapidFire/MS/MS readout with 0.01% Tween added (Table 1 ranges with two asterisks **)
Assay type: biochemical
Conditions: CGT enzymatic assay; range with two asterisks (**): RapidFire/MS/MS method with 0.01% Tween added
Counter-ions that a name gives are not always drawn.
Give IC50 for every item shown.

Respond only with IC50 recorded for O=C([C@@H](NS(=O)(=O)c1ccc2cc(OC3CCCC3)ccc2c1)C(F)(F)c1ccc(-c2ccc(Cl)cc2)cc1)N1CCNC2(CC2)C1 [Compound 188-1]
1 to 10 µM

Respond only with IC50 recorded for NC1CCN(C(=O)[C@@H](NC(=O)[C@H](O)c2ccc3cc(OC4CCCC4)ccc3c2)C(F)(F)c2ccc(-c3ccc(Cl)cc3)cc2)CC1 [Compound 159-1, trifluoroacetate]
1 to 10 µM

Respond only with IC50 recorded for O=C([C@H](NS(=O)(=O)c1ccc2cc(OC3CCCC3)ccc2c1)C(F)(F)c1ccc(-c2ccc(Cl)cc2)cc1)N1CCNC2(CC2)C1 [Compound 188-2]
30 to 100 µM

Respond only with IC50 recorded for NC1CCN(C(=O)[C@@H](N(CC(F)(F)F)S(=O)(=O)c2ccc3cc(OC4CCCC4)ccc3c2)C(F)(F)c2ccc(Br)cc2)CC1 [Compound 187-1]
30 to 100 µM

Respond only with IC50 recorded for NC1CCN(C(=O)[C@@H](NS(=O)(=O)c2ccc(COC3CCCCC3)s2)C(F)(F)c2ccc(-c3ccc(Cl)cc3)cc2)CC1 [Compound 165-2, trifluoroacetate]
30 to 100 µM

Respond only with IC50 recorded for NC(=NO)C1CCN(C(=O)[C@@H](NS(=O)(=O)c2ccc3cc(OC4CCCC4)ccc3c2)C(F)(F)c2ccc(-c3ccc(Cl)cc3)cc2)CC1 [Compound 174-1]
1 to 10 µM

Respond only with IC50 recorded for O=C([C@H](NS(=O)(=O)c1ccc2cc(OC3CCCC3)ccc2c1)C(F)(F)c1ccc(-c2ccc(Cl)cc2)cc1)N1CC[C@H]2CNC[C@H]21 [Compound 192-4]
30 to 100 µM

Respond only with IC50 recorded for O=C([C@H](NS(=O)(=O)c1ccc(OCC2CCCCC2)cc1)C(F)(F)c1ccc(-c2ccc(Cl)cc2)cc1)N1CC[C@H]2CNC[C@H]21 [Compound 195-4]
30 to 100 µM

Respond only with IC50 recorded for NC1CC2CCC(C1)N2C(=O)[C@@H](NC(=O)[C@H](O)c1ccc(OCC2CCCCC2)cc1)C(F)(F)c1ccc(-c2ccc(Cl)cc2)cc1 (some centres unmarked) [Compound 152-1, trifluoroacetate]
1 to 10 µM

Respond only with IC50 recorded for O=C([C@@H](NS(=O)(=O)c1ccc(OCC2CCCCC2)cc1)C(F)(F)c1ccc(-c2ccc(Cl)cc2)cc1)N1C[C@H]2CNC[C@H]2C1 [Compound 179-1]
1 to 10 µM

Respond only with IC50 recorded for NC1CCN(C(=O)[C@@H](NC(=O)[C@@H](O)c2ccc3cc(OC4CCCC4)ccc3c2)C(F)(F)c2ccc(-c3ccc(Cl)cc3)cc2)CC1 [Compound 159-3, trifluoroacetate]
1 to 10 µM
